Test system: U937
Test: area under dose-response curve (cell viability) (AUC (arbitrary, % viability x log concentration)); higher = less sensitive (more viable)
Conditions: 4 days
Where a name gives a salt, the structure may show the parent alone.
Entries annotated with measured area under dose-response curve
recorded metric: area under dose-response curve

INSERT INTO measurements (molecule, recorded_metric, readout_number) VALUES
  ('CC[C@@H]1C(=O)N(C)c2cnc(Nc3ccc(C(=O)NC4CCN(C)CC4)cc3OC)nc2N1C1CCCC1 [BI-2536]', 'area under dose-response curve', 5.36),
  ('COc1cccc2c1C(=O)c1c(O)c3c(c(O)c1C2=O)C[C@@](O)(C(C)=O)C[C@@H]3O[C@H]1C[C@H](N)[C@H](O)[C@H](C)O1 [Daunorubicin HCl]', 'area under dose-response curve', 426),
  ('CNC(=O)c1cc(Oc2ccc(NC(=O)Nc3ccc(Cl)c(C(F)(F)F)c3)cc2)ccn1 [Sorafenib]', 'area under dose-response curve', 588),
  ('Cc1ccc(NC(=O)c2ccc(CN3CCN(C)CC3)cc2)cc1Nc1nc(-c2cccnc2)cs1 [Masitinib]', 'area under dose-response curve', 648),
  ('CN(Cc1cnc2nc(N)nc(N)c2n1)c1ccc(C(=O)N[C@@H](CCC(=O)O)C(=O)O)cc1 [Methotrexate]', 'area under dose-response curve', 448),
  ('NC1(c2ccc(-c3nc4ccn5c(=O)[nH]nc5c4cc3-c3ccccc3)cc2)CCC1 [MK2206]', 'area under dose-response curve', 374),
  ('CS(=O)(=O)CCNCc1ccc(-c2ccc3ncnc(Nc4ccc(OCc5cccc(F)c5)c(Cl)c4)c3c2)o1 [Lapatinib]', 'area under dose-response curve', 623),
  ('NC(=O)c1ccc(I)c([N+](=O)[O-])c1 [BSI-201]', 'area under dose-response curve', 676),
  ('Cn1cc(C2=C(c3cn(C4CCN(Cc5ccccn5)CC4)c4ccccc34)C(=O)NC2=O)c2ccccc21 [Enzastaurin]', 'area under dose-response curve', 694),
  ('CN(C)CCCn1cc(C2=C(c3c[nH]c4ccccc34)C(=O)NC2=O)c2ccccc21', 'area under dose-response curve', 694),
  ('FC(F)(F)c1ccc(/C=C/c2nc(COc3ccc(CCCCn4ccnn4)cc3)co2)cc1 [Mubritinib]', 'area under dose-response curve', 431),
  ('N[C@@H](Cc1ccc(N(CCCl)CCCl)cc1)C(=O)O [Melphalan]', 'area under dose-response curve', 540),
  ('COc1cc(N2CCC(N3CCN(C)CC3)CC2)ccc1Nc1ncc(Cl)c(Nc2ccccc2S(=O)(=O)C(C)C)n1 [NVP-TAE-684]', 'area under dose-response curve', 651),
  ('CCc1cccc2c3c([nH]c12)C(CC)(CC(=O)O)OCC3 (centres undefined) [Etodolac]', 'area under dose-response curve', 682),
  ('CC(C)(C)c1cc(NC(=O)Nc2ccc(-c3cn4c(n3)sc3cc(OCCN5CCOCC5)ccc34)cc2)no1 [AC-220]', 'area under dose-response curve', 530),
  ('CC(=O)Nc1cccc(-n2c(=O)n(C3CC3)c(=O)c3c(Nc4ccc(I)cc4F)n(C)c(=O)c(C)c32)c1', 'area under dose-response curve', 578),
  ('Cc1cc(C(=O)NOCCO)c(Nc2ccc(I)cc2F)n(C)c1=O [AZD8330]', 'area under dose-response curve', 465),
  ('C#Cc1cccc(Nc2ncnc3cc(OCCOC)c(OCCOC)cc23)c1 [Erlotinib HCl]', 'area under dose-response curve', 642),
  ('CC[C@@]1(O)C(=O)OCc2c1cc1n(c2=O)Cc2cc3c(CN(C)C)c(O)ccc3nc2-1 [Topotecan HCl]', 'area under dose-response curve', 263);
